The measurements presented in this section are drawn from PubChem BioAssay.

- protocol_notes: modulators of HCV replicon luciferase signal, primary screen, HCV replication inhibitor project, Huh7 cells, luciferase reporter (AID 1109);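 further: huh7 hepatoma cells harbouring a luciferase neomycin HCV replicon reporter; luciferase luminescence as measure of HCV replicon replication; test concentration not given here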
- condition: 48 h, higher = more signal
Each entry below carries its reported z-score.
Just the number, please, no unit attached.

COCCOC(=O)N1C(=O)[C@@]2(c3cc(C#CCC(C(=O)OC)C(=O)OC)ccc31)[C@H](C(=O)N1CCCCCCC1)[C@H]1C(=O)O[C@H](c3ccccc3)[C@H](c3ccccc3)N1[C@@H]2c1ccccc1OCCO : -2.25
CO[C@H]1O[C@H](CO)[C@@H](OC(=O)Nc2ccc(C(F)(F)F)cc2)[C@H](OC(=O)Nc2ccccc2-c2ccccc2)[C@H]1OC(=O)Nc1ccccc1-c1ccccc1 : -3.83
CC(=O)c1ccc(C(O)C2C=CC3C(=O)NC(=O)C3N2Nc2ccc(Cl)cc2Cl)cc1 (centres undefined) : -0.38

# ---- query molecule ----
Give reported z-score value for COc1cc2c(cc1O)C(c1ccc(CN3CCCC3)cc1)N(Cc1ccc([N+](=O)[O-])o1)CC2 (centres undefined)
-1.05
